Test system: Listeria monocytogenes 10403S;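 note: End-point A600 read in BHI broth at 37 °C with 2% DMSO, inhibition computed as (1 − OD with compound plus ceftriaxone ÷ OD with ceftriaxone only) × 100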
measurement description: growth inhibition relative to ceftriaxone-alone control; higher = stronger potentiation of ceftriaxone growth inhibition
study conditions: 10 µM; ceftriaxone 1 ug/ml; 12 h
readout kind: growth inhibition (%)
Numbers only; they are read as %.

Q) Give the reported growth inhibition for this compound. CCOc1nccc2c1nc(-c1nonc1N)n2CC
A) 13.6

Q) Tell me its growth inhibition given COc1cc2c(cc1Nc1nc(N3CCc4ccccc43)c3cc[nH]c3n1)N(C(=O)CN(C)C)CC2 as the entry.
A) 7.28

Q) Give the value of growth inhibition reported for the following: N#CC(=C(/N)Sc1ccccc1N)/C(C#N)=C(\N)Sc1ccccc1N
A) 51.1

Q) Specify growth inhibition for COc1cc2ncnc(Nc3cccc(Cl)c3)c2cc1OC [AG-1478 (Tyrphostin AG-1478)] and stop.
A) 31.5

Q) Could you please provide reported growth inhibition for COc1cc(Nc2ncc3c(C)nc(-c4cccc(Oc5ccccc5)c4)n3n2)cc(OC)c1OC ? Thanks!
A) -18.3

Q) Please report the measured growth inhibition for Nc1nccc(-c2c(-c3ccc(F)cc3)nn3cc(C(F)(F)F)ccc23)n1
A) -7.97

Q) # return recorded growth inhibition for entry Nc1nc(N)c2nc(-c3cccc(O)c3)cnc2n1
A) 8.99

Q) Please give measured growth inhibition of the following entry: O=C(Nc1n[nH]c2nnc(-c3cccnc3)cc12)C1CC1
A) -0.393

FYI, the data here is from the supplement of paper PMC5641865.
